Target: mu opioid receptor (MOR) (Homo sapiens)
Experiment: OPRMu1 Discover X β-arrestin Assay, antagonist mode (U2OS cells, DAMGO EC80 challenge)
pIC50: −log10 of the molar value.
Overview of reported pIC50 across a group of compounds:

Some compounds with recorded pIC50:
compound	pIC50
CCc1cc(F)c2nc(N3CCN(CC4(F)CCOCC4)C[C@H]3C)c(-c3nc(C)no3)c(C)c2c1 [Compound 207]	< 6.00
CCc1cc(F)c2nc(N3CCN(C(=O)CN4CC[C@@H](O)C4)C[C@H]3C)c(-c3nc(C)no3)c(C)c2c1 [Compound 145]	< 6.00
CCc1cc(F)c2nc(N3CCN(C(=O)[C@H](CO)N(C)C)C[C@H]3C)c(-c3cc(C)no3)c(C)c2c1 [Compound 168]	< 6.00
CCc1cc(F)c2nc(N3CCN(C(=O)[C@H](C)N(CC)CC)C[C@H]3C)c(-c3nc(C)no3)c(C)c2c1 [Compound 158]	< 6.00
CCc1cc(F)c2nc(N3CCN(C(=O)[C@@H](C(C)C)N4CCCC4)C[C@H]3C)c(-c3nc(C)no3)c(C)c2c1 [Compound 148]	< 6.00

Incoming: I would be grateful if you could share the reported pIC50 for CCc1cc(F)c2nc(N3CCC(N[C@H]4CCOC[C@H]4F)CC3)c(-c3cc(C)n(C)n3)c(C)c2c1 [Compound 5] .
Outgoing: 6.00 to 7.00

Incoming: Another: CCc1cc(F)c2nc(N3CC[C@H](N[C@@H]4CCCOC4)C[C@H]3C)c(-c3cc(C)no3)c(C)c2c1 [Compound 142]
Outgoing: 7.00 to 8.00

---

Overview of reported IC50 across a group of molecules:
Molecular target: mu opioid receptor (MOR) (Homo sapiens, UniProt P35372)
Sequence (P35372 whole entry): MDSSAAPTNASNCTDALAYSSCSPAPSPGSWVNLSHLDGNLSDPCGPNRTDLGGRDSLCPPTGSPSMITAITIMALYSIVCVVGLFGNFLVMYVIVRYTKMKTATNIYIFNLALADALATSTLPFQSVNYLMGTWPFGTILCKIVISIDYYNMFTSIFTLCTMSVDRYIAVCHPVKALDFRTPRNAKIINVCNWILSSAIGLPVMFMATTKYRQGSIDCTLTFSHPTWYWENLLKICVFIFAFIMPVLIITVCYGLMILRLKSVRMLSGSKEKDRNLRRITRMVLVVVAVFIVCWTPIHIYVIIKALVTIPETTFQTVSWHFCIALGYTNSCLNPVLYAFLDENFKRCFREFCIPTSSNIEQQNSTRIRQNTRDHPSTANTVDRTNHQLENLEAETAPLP
Assay: OPRMu1 Discover X β-arrestin Assay, antagonist mode (U2OS cells, DAMGO EC80 challenge)

Some molecules with recorded IC50:
givenSmiles	IC50
CCc1cc(F)c2nc(N3CCN(C(=O)CN(CC)CC)C[C@H]3C)c(-c3cc(C)no3)c(C)c2c1	> 1 µM
CCc1cc(F)c2nc(N3CCN(C[C@@H]4CCCO4)C[C@H]3CC)c(-c3nc(C)no3)c(C)c2c1	> 1 µM
CCc1cc(F)c2nc(N3[C@H](C)CN(C(=O)CN4CCCC4)C[C@H]3C)c(-c3nc(C)no3)c(C)c2c1	0.1 to 1 µM
CCc1cc(F)c2nc(N3CC[C@H](N[C@@H]4CCOC4)[C@@H](F)C3)c(-c3ccn(C)n3)c(C)c2c1	> 1 µM
CCc1cc(F)c2nc(N3CCC(OCCN4CCCC4)CC3)c(-c3nc(C)no3)c(C)c2c1	> 1 µM

Incoming: For mu opioid receptor (MOR) (Homo sapiens, UniProt P35372), provide IC50 of CCc1cc(F)c2nc(N3CCN(CCC4CC(F)(F)C4)C[C@H]3C)c(-c3nc(C)no3)c(C)c2c1 please.
Outgoing: 0.1 to 1 µM

Incoming: Another: CCc1cc(-c2ccnn2C)c2nc(N3CC[C@H](NC4CCOCC4)[C@H](F)C3)c(-c3ccn(C)n3)c(C)c2c1
Outgoing: > 1 µM

---

Overview of reported pIC50 across a group of molecules:
Molecular target: kappa opioid receptor (KOR) (Homo sapiens, UniProt P41145)
Sequence (P41145 whole entry): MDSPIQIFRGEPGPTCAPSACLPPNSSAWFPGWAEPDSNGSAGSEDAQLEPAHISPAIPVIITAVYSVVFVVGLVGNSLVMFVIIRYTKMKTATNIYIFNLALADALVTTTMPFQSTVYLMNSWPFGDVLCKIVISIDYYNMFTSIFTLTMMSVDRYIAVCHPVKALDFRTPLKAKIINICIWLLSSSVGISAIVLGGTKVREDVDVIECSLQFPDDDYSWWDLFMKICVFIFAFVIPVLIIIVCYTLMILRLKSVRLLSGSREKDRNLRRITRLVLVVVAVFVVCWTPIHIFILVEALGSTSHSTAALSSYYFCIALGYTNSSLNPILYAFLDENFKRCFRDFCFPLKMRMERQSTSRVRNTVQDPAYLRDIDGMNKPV
Test: OPRKappa 1 Tango B-Arrestin Assay, antagonist mode (Tango OPRK1-bla U2OS cells, U50488 EC80 challenge)
Settings: antagonist mode, Tango OPRK1-bla U2OS cells, 6 nM U50488 challenge
pIC50: −log10 of the molar value.

Incoming: I would be grateful if you could share the reported pIC50 for CCc1cc(-c2ccnn2C)c2nc(N3CCC(NCC4CC(F)(F)C4)CC3)c(-c3ccn(C)n3)c(C)c2c1 .
Outgoing: 8.00 to 9.00

Incoming: Another: CCc1cc(F)c2nc(N3CCN(C(=O)C(C)(C)N4CCCC4)C[C@H]3C)c(-c3nc(C)no3)c(C)c2c1
Outgoing: 8.00 to 9.00

Incoming: Another: CCc1cc(F)c2nc(N3CCC(NCC4(F)CC4)CC3)c(-c3cc(C)n(C)n3)c(C)c2c1
Outgoing: 8.00 to 9.00

Incoming: Another: CCc1cc(-c2ccnn2C)c2nc(N3CCC(N4CCOC[C@@H]4C)CC3)c(-c3ccn(C)n3)c(C)c2c1
Outgoing: < 6.00

Incoming: Another: CCc1cc(F)c2nc(N3CC[C@H](NC4CCOCC4)[C@H](F)C3)c(-c3cc(C(F)(F)F)n(C)n3)c(C)c2c1 (stereo in doubt)
Outgoing: ≤ 7.00

Incoming: Another: CCc1cc(F)c2nc(N3CCN(C4CC5(COC5)C4)C[C@H]3C)c(-c3nc(C)no3)c(C)c2c1
Outgoing: 7.00 to 8.00

Incoming: Another: CCc1cc(F)c2nc(N3CCN(C(=O)[C@H]4CC(F)(F)CCN4C)C[C@H]3C)c(-c3nc(C)no3)c(C)c2c1
Outgoing: 8.00 to 9.00

Incoming: Another: CCc1cc(F)c2nc(N3CC[C@@H](N[C@@H]4CCCOC4)C[C@H]3C)c(-c3ccn(C)n3)c(C)c2c1
Outgoing: > 9.00

Incoming: Another: CCc1cc(F)c2nc(N3CC[C@@H]4[C@@H](CCN4[C@@H]4CCCOC4)C3)c(-c3ccn(C)n3)c(C)c2c1
Outgoing: 7.00 to 8.00

Incoming: Another: CCc1cc(F)c2nc(N3CCN(CC4CCOCC4)C[C@H]3C)c(-c3ccn(C)n3)c(C)c2c1
Outgoing: 8.00 to 9.00

Incoming: Another: CCc1cc(F)c2nc(N3CCNC4CC43)c(-c3nc(C)no3)c(C)c2c1 (centres unmarked)
Outgoing: ≤ 7.00

Incoming: Another: CCc1cc(F)c2nc(N3CC[C@@H](N[C@@H]4CCOC4)[C@@H](F)C3)c(-c3ccn(C)n3)c(C)c2c1
Outgoing: > 9.00

Incoming: Another: CCc1cc(F)c2nc(N3CC[C@H](N[C@@H]4CCCOC4)C[C@H]3C)c(-c3cc(C)no3)c(C)c2c1
Outgoing: > 9.00

Incoming: Another: CCc1cc(F)c2nc(N3CC[C@H](NC4CCOCC4)[C@H](F)C3)c(-c3nn(C)cc3F)c(C)c2c1F
Outgoing: 8.00 to 9.00
